# Tgt: human type 1 5α-reductase (Homo sapiens, UniProt P18405)
# Assay notes: 5α-reductase in vitro inhibitory activity, human type 1
Below is a list of entries, each paired with its recorded IC50 value.

Compound	IC50
CC1(C)Cc2ccccc2C1NC(=O)[C@H]1CC[C@H]2[C@@H]3CNC4=CC(=O)CC[C@]4(C)[C@H]3CC[C@]12C (stereo partly shown) [Compound 110]	10 to 100 nM
CCC1(CC)CC1(NC(=O)[C@H]1CC[C@H]2[C@@H]3CNC4=CC(=O)CC[C@]4(C)[C@H]3CC[C@]12C)c1ccc(-c2ccccc2)cc1 (stereo partly shown) [Compound 130]	< 10 nM
CC(C)(C)c1ccc(-c2ccccc2)cc1NC(=O)[C@H]1CC[C@H]2[C@@H]3CNC4=CC(=O)CC[C@]4(C)[C@H]3CC[C@]12C [Compound 88]	< 10 nM

We next turn to a different compound, shown below.
INPUT: GET /values?readout=IC50&system=human type 1 5α-reductase (Homo sapiens, UniProt P18405)&item= CC12CCC(=O)C=C1NCC1C2CCC2(C)C(C(=O)Nc3ccc(N4CCOCC4)cc3)CCC12 (stereo not shown) [Compound 5]
OUTPUT: > 100 nM

* * *

# Tgt: human type 2 5α-reductase (Homo sapiens)
# Sequence (P31213 whole entry): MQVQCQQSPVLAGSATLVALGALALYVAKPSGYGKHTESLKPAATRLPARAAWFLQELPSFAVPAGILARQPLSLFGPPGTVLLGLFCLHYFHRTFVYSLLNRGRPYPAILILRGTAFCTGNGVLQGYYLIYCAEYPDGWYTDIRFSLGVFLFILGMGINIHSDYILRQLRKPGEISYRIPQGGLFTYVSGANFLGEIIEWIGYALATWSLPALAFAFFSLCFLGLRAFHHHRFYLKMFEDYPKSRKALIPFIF
# Assay notes: 5α-reductase in vitro inhibitory activity, human type 2
Metric: IC50

Known results for compounds:
Compound	Tgt	Value observed
CC(C)(C)c1ccc(-c2ccccc2)cc1NC(=O)[C@H]1CC[C@H]2[C@@H]3CNC4=CC(=O)CC[C@]4(C)[C@H]3CC[C@]12C [Compound 88]	human type 2 5α-reductase (Homo sapiens)	< 10 nM
CCc1cc(Br)cc(CC)c1NC(=O)[C@H]1CC[C@H]2[C@@H]3CNC4=CC(=O)CC[C@]4(C)[C@H]3CC[C@]12C [Compound 70]	human type 2 5α-reductase (Homo sapiens)	< 10 nM
C[C@]12CC[C@H]3[C@@H](CNC4=CC(=O)CC[C@@]43C)[C@@H]1CC[C@@H]2C(=O)NCc1ccc(F)cc1F [Compound 42]	human type 2 5α-reductase (Homo sapiens)	< 10 nM

INPUT: # get_value(readout= IC50, system= human type 2 5α-reductase (Homo sapiens)) for C[C@]12CC[C@H]3[C@@H](CNC4=CC(=O)CC[C@@]43C)[C@@H]1CC[C@@H]2C(=O)NC1(c2ccc(Cl)cc2Cl)CC1 [Compound 101]
OUTPUT: < 10 nM

INPUT: Same again, this time with COc1ccc(C(C)(C)C)cc1NC(=O)[C@H]1CC[C@H]2[C@@H]3CNC4=CC(=O)CC[C@]4(C)[C@H]3CC[C@]12C [Compound 128]
OUTPUT: < 10 nM

INPUT: Also, CC(NC(=O)[C@H]1CC[C@H]2[C@@H]3CNC4=CC(=O)CC[C@]4(C)[C@H]3CC[C@]12C)C(c1ccccc1)c1ccccc1 (stereo partly drawn) [Compound 45] please.
OUTPUT: < 10 nM

* * *

# Tgt: human type 1 5α-reductase (Homo sapiens, UniProt P18405)
# Assay notes: 5α-reductase in vitro inhibitory activity, human type 1
Metric: IC50

Take a look at these entries with their results.
Molecule	Tgt	IC50
COC(=O)c1sc(C(C)(C)C)cc1NC(=O)[C@H]1CC[C@H]2[C@@H]3CNC4=CC(=O)CC[C@]4(C)[C@H]3CC[C@]12C	human type 1 5α-reductase (Homo sapiens, UniProt P18405)	10 to 100 nM
CC1=C2NC[C@H]3[C@@H]4CC[C@H](C(=O)Nc5cc(C(F)(F)F)ccc5C(C)(C)C)[C@@]4(C)CC[C@@H]3[C@@]2(C)CCC1=O	human type 1 5α-reductase (Homo sapiens, UniProt P18405)	< 10 nM
CC(C)(C)C1CCC(NC(=O)[C@H]2CC[C@H]3[C@@H]4CNC5=CC(=O)CC[C@]5(C)[C@H]4CC[C@]23C)CC1 (stereo partly shown)	human type 1 5α-reductase (Homo sapiens, UniProt P18405)	> 100 nM
C[C@]12CC[C@H]3[C@@H](CNC4=CC(=O)CC[C@@]43C)[C@@H]1CC[C@@H]2C(=O)Nc1c(Cl)cc(Cl)cc1Cl	human type 1 5α-reductase (Homo sapiens, UniProt P18405)	10 to 100 nM
CCCCCCCCCCc1ccc(NC(=O)[C@H]2CC[C@H]3[C@@H]4CNC5=CC(=O)CC[C@]5(C)[C@H]4CC[C@]23C)cc1	human type 1 5α-reductase (Homo sapiens, UniProt P18405)	> 100 nM
C[C@]12CC[C@H]3[C@@H](CNC4=CC(=O)CC[C@@]43C)[C@@H]1CC[C@@H]2C(=O)NNc1ccccc1	human type 1 5α-reductase (Homo sapiens, UniProt P18405)	> 100 nM

INPUT: Item COc1ccc(C(C)(C)C)cc1NC(=O)[C@H]1CC[C@H]2[C@@H]3CNC4=CC(=O)CC[C@]4(C)[C@H]3CC[C@]12C with human type 1 5α-reductase (Homo sapiens, UniProt P18405) - IC50?
OUTPUT: < 10 nM

INPUT: Request: CC(NC(=O)[C@H]1CC[C@H]2[C@@H]3CNC4=CC(=O)CC[C@]4(C)[C@H]3CC[C@]12C)c1ccccc1 (stereo partly shown)
OUTPUT: > 100 nM

INPUT: Do the same for CCc1cc(-c2ccc(Cl)cc2)cc(CC)c1NC(=O)[C@H]1CC[C@H]2[C@@H]3CNC4=CC(=O)CC[C@]4(C)[C@H]3CC[C@]12C please
OUTPUT: < 10 nM

INPUT: Can you check Cc1ccc(CCNC(=O)C2CCC3C4CNC5=CC(=O)CCC5(C)C4CCC23C)cc1 (stereo not shown) next?
OUTPUT: 10 to 100 nM

INPUT: Query Cc1cc(C)c(NC(=O)[C@H]2CC[C@H]3[C@@H]4CNC5=CC(=O)CC[C@]5(C)[C@H]4CC[C@]23C)c(C)c1 next
OUTPUT: 10 to 100 nM

INPUT: Let us now turn to CC(C)(NC(=O)[C@H]1CC[C@H]2[C@@H]3CNC4=CC(=O)CC[C@]4(C)[C@H]3CC[C@]12C)c1ccccc1
OUTPUT: > 100 nM

INPUT: Another molecule to check: C[C@]12CC[C@H]3[C@@H](CNC4=CC(=O)CC[C@@]43C)[C@@H]1CC[C@@H]2C(=O)Nc1cc(C(F)(F)F)ccc1Br
OUTPUT: 10 to 100 nM

INPUT: # iterate: C[C@]12CC[C@H]3[C@@H](CNC4=CC(=O)CC[C@@]43C)[C@@H]1CC[C@@H]2C(=O)NC1(c2cccc(C(F)(F)F)c2)CCCC1
OUTPUT: < 10 nM

INPUT: Subsequent entry: CC(C)(C)C(=O)OCC1CCC2C3CNC4=CC(=O)CCC4(C)C3CCC12C (stereo not shown)
OUTPUT: 10 to 100 nM

* * *

pIC50 values, listed per item
# Tgt: Rat Prostatic 5α-reductase
# Assay notes: 5α-reductase in vitro inhibitory activity, rat prostatic
# Stated conditions: read-out: IC50 Rat Prostatic; microsomes derived from prostate tissue from the rat
pIC50: −log10 of the molar value.

Completed entries (count: 5):
Compound	pIC50
C[C@]12CC[C@H]3[C@@H](CNC4=CC(=O)CC[C@@]43C)[C@@H]1CC[C@@H]2C(=O)NCc1ccc(F)cc1F [Compound 42]	> 8.00
C[C@]12CC[C@H]3[C@@H](CNC4=CC(=O)CC[C@@]43C)[C@@H]1CC[C@@H]2C(=O)NC1c2ccccc2-c2ccccc21 [Compound 1]	7.00 to 8.00
C[C@]12CC[C@H]3[C@@H](CNC4=CC(=O)CC[C@@]43C)[C@@H]1CC[C@@H]2C(=O)NC(Cc1ccccc1)c1ccccc1 (some centres unmarked) [Compound 17]	> 8.00
CC12CCC(=O)C=C1NCC1C2CCC2(C)C(C(=O)Nc3ccc4c(c3)OCO4)CCC12 (centres unmarked) [Compound 7]	7.00 to 8.00
CC(C)c1cccc(C(C)C)c1NC(=O)[C@H]1CC[C@H]2[C@@H]3CNC4=CC(=O)C=C[C@]4(C)[C@H]3CC[C@]12C [Compound 93]	< 7.00

INPUT: # query: pIC50 of entry C[C@]12CC[C@H]3[C@@H](CNC4=CC(=O)CC[C@@]43C)[C@@H]1CC[C@@H]2C(=O)CC1CCCCC1 [Compound 2]
OUTPUT: > 8.00

INPUT: What would you report for C[C@]12CC[C@H]3[C@@H](CNC4=CC(=O)CC[C@@]43C)[C@@H]1CC[C@@H]2COC(=O)C(c1ccccc1)c1ccccc1 [Compound 28] ?
OUTPUT: > 8.00

INPUT: Entry C[C@]12CC[C@H]3[C@@H](CNC4=CC(=O)CC[C@@]43C)[C@@H]1CC[C@@H]2COC(=O)C12CC3CC(CC(C3)C1)C2 [Compound 38] please
OUTPUT: < 7.00

* * *

# Tgt: UniProtKB P18405
# Sequence (P18405 1-259): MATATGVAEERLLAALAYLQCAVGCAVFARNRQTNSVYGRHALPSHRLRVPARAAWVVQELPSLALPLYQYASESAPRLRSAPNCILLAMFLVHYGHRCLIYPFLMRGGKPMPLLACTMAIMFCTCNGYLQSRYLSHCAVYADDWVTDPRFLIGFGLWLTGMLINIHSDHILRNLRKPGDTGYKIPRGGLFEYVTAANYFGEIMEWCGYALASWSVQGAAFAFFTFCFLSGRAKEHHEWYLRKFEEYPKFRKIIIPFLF
# Assay notes: 5α-reductase in vitro inhibitory activity, human type 1
pIC50: −log10 of the molar value.
Metric: pIC50

Molecule	Tgt	pIC50
C[C@]12CC[C@H]3[C@@H](CNC4=CC(=O)CC[C@@]43C)[C@@H]1CC[C@@H]2C(=O)N(C(=O)NC1CCCCC1)C1CCCCC1	UniProtKB P18405	7.00 to 8.00
CCOC(=O)c1ccccc1NC(=O)[C@H]1CC[C@H]2[C@@H]3CNC4=CC(=O)CC[C@]4(C)[C@H]3CC[C@]12C	UniProtKB P18405	7.00 to 8.00
CC(C)(C)c1ccc(C(NC(=O)[C@H]2CC[C@H]3[C@@H]4CNC5=CC(=O)CC[C@]5(C)[C@H]4CC[C@]23C)C(C)(C)C)cc1 (stereo partly drawn)	UniProtKB P18405	> 8.00

INPUT: Data request, read-out pIC50, for C[C@]12CC[C@H]3[C@@H](CNC4=CC(=O)CC[C@@]43C)[C@@H]1CC[C@@H]2C(=O)N1CCC(Cc2ccccc2)CC1
OUTPUT: 7.00 to 8.00

INPUT: Let us now turn to CC(C)(C)NC(=O)c1ccc(C(F)(F)F)cc1NC(=O)[C@H]1CC[C@H]2[C@@H]3CNC4=CC(=O)CC[C@]4(C)[C@H]3CC[C@]12C
OUTPUT: < 7.00

INPUT: Next entry: COc1cc(Cl)cc(NC(=O)[C@H]2CC[C@H]3[C@@H]4CNC5=CC(=O)CC[C@]5(C)[C@H]4CC[C@]23C)c1
OUTPUT: 7.00 to 8.00
